Biological target: Collagenase 3 (Homo sapiens)
Test: Inhibition of C-terminal tagged human recombinant MMP13 catalytic domain expressed in Escherichia coli assessed as residual activity at 10 uM using (5-FAM/QX) FRET peptide as substrate by fluorescence assay relative to control
So I've got a bunch of compounds here, and I need their Activity values.
The answer should read as a number with its unit following.

Observe how each entry below is paired with its result.
COc1cc(CNC(=O)C#Cc2cn(Cc3ccc(C(=O)N[C@@H](C)C(=O)O)cc3)c(=O)[nH]c2=O)ccc1F 0.8%
COc1cc(CNC(=O)C#Cc2cn(Cc3ccc(S(=O)(=O)NC(C)(C)C)cc3)c(=O)[nH]c2=O)ccc1F 1.7%
COc1cc(CNC(=O)C#Cc2cn(Cc3ccc(S(=O)(=O)N4CCOCC4)cc3)c(=O)[nH]c2=O)ccc1F 1.2%

Record Activity per entry; entries follow.
1. CNC(=O)c1ccc(Cn2cc(C#CC(=O)NCc3ccc(F)c(OC)c3)c(=O)[nH]c2=O)cc1
2. COc1cc(CNC(=O)C#Cc2cn(Cc3ccc(C(=O)NCCO)cc3)c(=O)[nH]c2=O)ccc1F
3. COc1cc(CNC(=O)C#Cc2cn(Cc3ccc(-c4cnco4)cc3)c(=O)[nH]c2=O)ccc1F

Result:
["7.5%", "2.6%", "0.4%"]

Fill in Activity for each of the 2 compounds listed.
1. COc1cc(CNC(=O)C#Cc2cn(Cc3ccc(C(=O)N[C@H](C)C(=O)O)cc3)c(=O)[nH]c2=O)ccc1F
2. COc1cc(CNC(=O)C#Cc2cn(Cc3ccc(C(=O)N[C@H](CO)C(=O)O)cc3)c(=O)[nH]c2=O)ccc1F

Result:
0.4%
5.6%

====

Kindly supply the reported pIC50 values for the records listed here.
Biological target: Collagenase 3 (Homo sapiens, UniProt P45452)
Experiment: Inhibition of C-terminal tagged human recombinant MMP13 catalytic domain expressed in Escherichia coli using (5-FAM/QX) FRET peptide as substrate by fluorescence assay
Settings: read-out: IC50
Numbers only, as −log10 of the molar value.

// below: answered compounds
Compound	pIC50
COC(=O)[C@H](C)NC(=O)c1ccc(Cn2cc(C#CC(=O)NCc3ccc(F)c(OC)c3)c(=O)[nH]c2=O)cc1	6.83
COC(=O)c1ccc(Cn2cc(C#CC(=O)NCc3ccc(F)c(OC)c3)c(=O)[nH]c2=O)cc1	6.89
COc1cc(CNC(=O)C#Cc2cn(Cc3ccc(C(=O)N(C)C)cc3)c(=O)[nH]c2=O)ccc1F	7.05
COc1cc(CNC(=O)C#Cc2cn(Cc3ccc(C(N)=O)cc3)c(=O)[nH]c2=O)ccc1F	6.95
COc1cccc(CNC(=O)c2nc3scc(COCc4ccc(C(=O)O)cc4)c3c(=O)[nH]2)c1 [T-26c]	9.72

Please look at the items below and tell me pIC50 for each one, in order.
1. CNC(=O)c1ccc(Cn2cc(C#CC(=O)NCc3ccc(F)c(OC)c3)c(=O)[nH]c2=O)cc1
2. COc1cc(CNC(=O)C#Cc2cn(Cc3ccc(S(=O)(=O)N4CCOCC4)cc3)c(=O)[nH]c2=O)ccc1F
3. COc1cc(CNC(=O)C#Cc2cn(Cc3ccc(S(=O)(=O)NC(C)(C)C)cc3)c(=O)[nH]c2=O)ccc1F
4. COc1cc(CNC(=O)C#Cc2cn(Cc3ccc(S(=O)(=O)NC(C)C)cc3)c(=O)[nH]c2=O)ccc1F

Result:
[7.07, 7.18, 7.59, 7.60]

Task: GET /values?readout=pIC50&item= COc1cc(CNC(=O)C#Cc2cn(Cc3ccc(S(=O)(=O)NC4CC4)cc3)c(=O)[nH]c2=O)ccc1F
Result: 7.85

====

Molecular target: Stromelysin-2 (Homo sapiens, UniProt P09238)
Sequence (P09238 whole entry): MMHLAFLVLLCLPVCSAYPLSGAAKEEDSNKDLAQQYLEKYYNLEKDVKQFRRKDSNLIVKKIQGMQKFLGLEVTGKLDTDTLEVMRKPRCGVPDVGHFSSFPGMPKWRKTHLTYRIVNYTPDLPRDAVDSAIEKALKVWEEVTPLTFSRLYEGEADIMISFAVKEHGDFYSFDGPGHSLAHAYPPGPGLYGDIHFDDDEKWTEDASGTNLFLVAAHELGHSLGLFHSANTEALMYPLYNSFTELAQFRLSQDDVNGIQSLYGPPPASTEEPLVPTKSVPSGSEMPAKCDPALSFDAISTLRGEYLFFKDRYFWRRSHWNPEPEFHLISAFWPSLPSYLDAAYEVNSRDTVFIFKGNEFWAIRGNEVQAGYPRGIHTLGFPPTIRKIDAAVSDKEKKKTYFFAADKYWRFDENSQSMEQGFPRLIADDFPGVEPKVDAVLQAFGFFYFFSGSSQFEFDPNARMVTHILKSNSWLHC
Test: Inhibition of MMP10 (unknown origin) assessed using (5-FAM/QX) FRET peptide as substrate by fluorescence assay
Conditions: read-out: pIC50 (converted)
For each of the molecules below, state its IC50.

Here's what some known entries look like.
COc1cc(CNC(=O)C#Cc2cn(Cc3ccc(C(=O)NCCO)cc3)c(=O)[nH]c2=O)ccc1F 275 to 398 nM
CNC(=O)c1ccc(Cn2cc(C#CC(=O)NCc3ccc(F)c(OC)c3)c(=O)[nH]c2=O)cc1 479 to 832 nM

Task: # lookup: IC50 of COc1cc(CNC(=O)C#Cc2cn(Cc3ccc(-c4cnco4)cc3)c(=O)[nH]c2=O)ccc1F
Result: 24.5 to 29.5 nM
